Data credit: BindingDB's records for doi:10.3109/14756366.2011.572879

# test.system: Glutathione reductase, mitochondrial (Homo sapiens, UniProt P00390)
# Sequence (P00390 whole entry): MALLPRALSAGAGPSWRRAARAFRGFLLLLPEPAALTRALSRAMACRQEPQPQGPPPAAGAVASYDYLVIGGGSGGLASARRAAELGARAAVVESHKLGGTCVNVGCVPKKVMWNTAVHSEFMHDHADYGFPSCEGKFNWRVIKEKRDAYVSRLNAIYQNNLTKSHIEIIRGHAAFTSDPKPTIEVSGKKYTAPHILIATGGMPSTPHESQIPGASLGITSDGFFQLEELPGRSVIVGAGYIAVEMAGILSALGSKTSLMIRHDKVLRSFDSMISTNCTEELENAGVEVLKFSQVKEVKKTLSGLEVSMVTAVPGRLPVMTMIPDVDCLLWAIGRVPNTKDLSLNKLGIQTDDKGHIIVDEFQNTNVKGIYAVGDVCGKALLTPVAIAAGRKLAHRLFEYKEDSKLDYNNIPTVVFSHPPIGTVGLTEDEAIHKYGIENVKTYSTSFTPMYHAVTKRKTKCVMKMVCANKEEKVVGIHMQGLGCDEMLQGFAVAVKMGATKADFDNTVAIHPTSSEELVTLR
Where a name gives a salt, the structure may show the parent alone.
measurement.type: IC50 (µM)

[a] CN1CCC(=C2c3ccccc3CC(=O)c3sccc32)CC1
[b] OC(CNc1ccccn1)c1ccccc1 (configuration not stated) [Phenyramidol-HCl]
Between the entries labelled a and b , which has a larger IC50 value on record? In your reply, give the label of the chosen option.
b
